# target-of-assay: UniProtKB P50053
# Sequence (P50053 whole entry): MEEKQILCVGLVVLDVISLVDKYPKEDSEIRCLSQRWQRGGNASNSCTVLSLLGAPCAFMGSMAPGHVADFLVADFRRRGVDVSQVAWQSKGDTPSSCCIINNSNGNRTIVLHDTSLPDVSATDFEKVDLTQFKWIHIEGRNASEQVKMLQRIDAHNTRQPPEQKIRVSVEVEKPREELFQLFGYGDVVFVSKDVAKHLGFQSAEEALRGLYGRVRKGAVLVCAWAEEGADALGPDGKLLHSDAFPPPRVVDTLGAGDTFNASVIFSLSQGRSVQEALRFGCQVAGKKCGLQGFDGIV
# assay-remarks: KHK Biochemical Assay (IC50), ADP-Glo, KHK-C
# run-conditions: ADP-Glo; average of at least two separate assays
Kindly state IC50 for each of the entries shown.

Query: Request the reported IC50 associated with C[C@H]1CCN1c1nc2c(c(-c3cnccn3)n1)CCC2 [Example 344]
Response: 224 nM

Query: Request the reported IC50 associated with C[C@H]1[C@H](F)CN1c1nc(-c2ccc(C3(N)CS(=N)(=O)C3)cc2)c2c(n1)C(F)(F)CC2 (stereo partly shown) [Example 796]
Response: 1.8 nM

Query: Request the reported IC50 associated with C[C@H]1CCN1c1nc2c(c(-c3ccc4[nH]nc(C(F)(F)F)c4c3)n1)CCC2 [Example 243]
Response: > 5000 nM

Query: Request the reported IC50 associated with C[C@H]1[C@H](F)CN1c1nc2c(c(-c3cccc(NS(C)(=O)=O)c3)n1)CCC2 [Example 290]
Response: 30.9 nM

Query: Request the reported IC50 associated with C[C@@H]1Oc2cc(-c3nc(N4CC[C@@H]4C)nc4c3CCC4)ccc2[C@H]1NS(C)(=O)=O [Example 886]
Response: 13.2 nM

Query: Request the reported IC50 associated with C[C@H]1CCN1c1nc2c(c(-c3cccc(CNS(C)(=O)=O)c3)n1)CCC2 [Example 277]
Response: 15.3 nM

Query: Request the reported IC50 associated with C[C@H]1[C@H](O)CN1c1nc(-c2ccc([C@@]3(N)CCS(=O)(=O)C3)cc2)c2c(n1)C(F)(F)CC2 (single isomer, unassigned) [Example 794]
Response: 4.4 nM

Query: Request the reported IC50 associated with COc1cc(-c2nc(N3CC[C@@H]3C(F)(F)F)nc3c2CCC3(F)F)ccc1C1(N)COC1 [Example 837]
Response: 0.7 nM

Query: Request the reported IC50 associated with C[C@H]1CCN1c1nc2c(c(-c3ccc4c(c3)CC(F)C4NS(C)(=O)=O)n1)CCC2 (stereo partly shown) [Example 885]
Response: 26.1 nM

Query: Request the reported IC50 associated with C[C@H]1CCN1c1nc2c(c(-c3ccc4c(O)n[nH]c4c3)n1)CCC2 [Example 120]
Response: 42.7 nM

Query: Request the reported IC50 associated with Cc1ccc(-c2nc(N3CC[C@@H]3C)nc3c2CCC3)cc1C(N)=O [Example 27]
Response: 59.7 nM

Query: Request the reported IC50 associated with C[C@H]1[C@H](O)CN1c1nc2c(c(-c3ccc(C(N)=O)c(Cl)c3)n1)CCC2 [Example 308]
Response: 97.5 nM

Query: Request the reported IC50 associated with C[C@H]1CCN1c1nc2c(c(-c3ccc(C(N)=O)c(Cc4ccccc4)c3)n1)CCC2 [Example 841]
Response: 40.5 nM

Query: Request the reported IC50 associated with CC1Cc2cc(-c3nc(N4CC[C@@H]4C)nc4c3CCC4)ccc2C1NS(C)(=O)=O (stereo partly shown) [Example 891]
Response: 59.5 nM

Query: Request the reported IC50 associated with C[C@H]1CCN1c1nc2c(c(-c3ccc(CO)c(F)c3)n1)CCC2 [Example 370]
Response: 81.7 nM

Query: Request the reported IC50 associated with C[C@H]1CCN1c1nc2c(c(-c3cccs3)n1)CCC2 [Example 45]
Response: 108 nM
